- assay target: Free fatty acid receptor 1 (Homo sapiens, UniProt O14842)
- Sequence (O14842 whole entry): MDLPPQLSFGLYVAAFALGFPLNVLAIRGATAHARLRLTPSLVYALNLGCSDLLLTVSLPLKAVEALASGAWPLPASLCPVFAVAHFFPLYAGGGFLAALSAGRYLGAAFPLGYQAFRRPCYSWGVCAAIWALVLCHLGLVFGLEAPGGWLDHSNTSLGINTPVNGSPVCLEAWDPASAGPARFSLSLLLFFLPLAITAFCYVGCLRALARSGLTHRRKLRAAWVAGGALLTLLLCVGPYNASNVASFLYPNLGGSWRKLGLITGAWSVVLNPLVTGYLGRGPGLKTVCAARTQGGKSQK
- assay procedure: Agonist activity at GPR40 (unknown origin) expressed in HEK293 cells assessed as intracellular inositol phosphate accumulation incubated for 30 mins by IP-one HTRF analysis
- Format: functional, cell-based
pEC50: −log10 of the molar value.
assay readout: pEC50

Below: 3 compounds and their reported pEC50.
# compound, pEC50
rows = [
    ("CCCOc1ccc(OC)cc1/C=C(C)/C=C/COc1cccc(C(CC(=O)O)C2CC2)c1 (stereo not given)", 6.44),
    ("COc1ccc(OCC2CC2)c(/C=C(C)/C=C/COc2cccc(C(CC(=O)O)C3CC3)c2)c1 (stereo not given)", 6.44),
    ("COc1ccc(OCCCC(C)C)c(/C=C(C)/C=C/COc2cccc(C(CC(=O)O)C3CC3)c2)c1 (stereo not given)", 6.87),
]

(a) COc1ccc(OCc2ccccc2)c(/C=C(C)/C=C/COc2cccc(C(CC(=O)O)C3CC3)c2)c1 (stereo not given)
(b) COc1ccc(C(=O)N(CC(C)(C)C)c2cccc(C)n2)c(N2CCC(COc3cc([C@@H](CC(=O)O)C4CC4)ccn3)CC2)c1
Please state the entry with greater pEC50 among a and b . Give the chosen item's label as your response.
b
(b: 8.95, a: 6.69)

----------
- assay target: Free fatty acid receptor 1 (Homo sapiens, UniProt O14842)
- assay procedure: Agonist activity at GPR40 (unknown origin) expressed in HEK293 cells assessed as intracellular cAMP level incubated for 30 mins by LANCE Ultra cAMP kit based multiplate reader analysis
- Type: functional, cell-based
pEC50: −log10 of the molar value.
Entries annotated with measured pEC50

Below: 5 compounds and their reported pEC50.
# compound, pEC50
data = [
    ("COc1ccc(F)c(/C=C/C=C/COc2cccc(C(CC(=O)O)C3CC3)c2)c1 (centres undefined)", "< 5.00"),
    ("COc1ccc(C(=O)N(CC(C)(C)C)c2cccc(C)n2)c(N2CCC(COc3cc([C@@H](CC(=O)O)C4CC4)ccn3)CC2)c1", 7.06),
    ("COc1ccc(OCCCC(C)C)c(/C=C(C)/C=C/COc2cccc(C(CC(=O)O)C3CC3)c2)c1 (centres undefined)", 5.16),
    ("COc1ccc(F)c(CCCOc2cccc(C(CC(=O)O)C3CC3)c2)c1 (centres undefined)", "< 5.00"),
    ("COc1ccc(OC)c(/C=C(C)/C=C/COc2cccc(C(CC(=O)O)C3CC3)c2)c1 (centres undefined)", "< 5.00"),
]

Fill in pEC50 for record CCCOc1ccc(OC)cc1/C=C(C)/C=C/COc1cccc(C(CC(=O)O)C2CC2)c1 (centres undefined)
< 5.00

Fill in pEC50 for record COc1ccc(OCC2CC2)c(/C=C(C)/C=C/COc2cccc(C(CC(=O)O)C3CC3)c2)c1 (centres undefined)
< 5.00

Fill in pEC50 for record COc1ccc(OCc2ccccc2)c(/C=C(C)/C=C/COc2cccc(C(CC(=O)O)C3CC3)c2)c1 (centres undefined)
< 5.00

Fill in pEC50 for record COc1ccc(F)c(CCCCOc2cccc(C(CC(=O)O)C3CC3)c2)c1 (centres undefined)
< 5.00

Fill in pEC50 for record COc1ccc(OCCC(C)(C)C)c(/C=C(C)/C=C/COc2cccc([C@H](C3CC3)[C@@](C)(F)C(=O)O)c2)c1
6.58

Fill in pEC50 for record COc1cc(/C=C(C)/C=C/COc2cccc(C(CC(=O)O)C3CC3)c2)cc(OCCC(C)(C)C)c1 (centres undefined)
< 5.00

Fill in pEC50 for record COc1ccc(OCCC(C)(C)C)c(/C=C(C)/C=C/COc2cccc([C@H](C3CC3)[C@](C)(F)C(=O)O)c2)c1
< 5.00

Fill in pEC50 for record COc1ccc(F)c(CCCCCCOc2cccc(C(CC(=O)O)C3CC3)c2)c1 (centres undefined)
< 5.00

Fill in pEC50 for record COc1cc(/C=C(C)/C=C/COc2cccc(C(CC(=O)O)C3CC3)c2)cc(OCc2ccc(Cl)cc2F)c1 (centres undefined)
< 5.00

----------
Entries annotated with measured EC50
- assay target: Free fatty acid receptor 1 (Homo sapiens)
- assay procedure: Agonist activity at GPR40 (unknown origin) expressed in HEK293 cells assessed as intracellular inositol phosphate accumulation incubated for 30 mins by IP-one HTRF analysis
- Type: functional, cell-based

Below: 2 compounds and their reported EC50.
# compound, EC50
data = [
    ("COc1ccc(OCCC(C)(C)C)c(/C=C(C)/C=C/COc2cccc([C@H](C3CC3)[C@](C)(F)C(=O)O)c2)c1", "1.05 µM"),
    ("COc1ccc(F)c(CCCOc2cccc(C(CC(=O)O)C3CC3)c2)c1 (stereo not drawn)", "> 10 µM"),
]

Fill in EC50 for record COc1ccc(F)c(CCCCCCOc2cccc(C(CC(=O)O)C3CC3)c2)c1 (stereo not drawn)
> 10 µM
